Origin of measurements: paper PMC9421653

Target: human GPR84 (Homo sapiens)
Construct: expressed in transfected cells; host or cells: Flp-In T-REx 293 cells, doxycycline-induced; membrane preparations
Test: biochemical
Assay type: biochemical
Conditions: [35S]GTPγS assay; negative log of the IC50 in molar; mean ± SEM; read-out: GTPγS (pIC50) (converted)
Quantity measured: IC50 (nM)
Give the quantity in nM, number only.

IC50 in this record for NC(=O)CNC(=O)c1ccc(-c2nc(Cc3c[nH]c4ccccc34)nnc2-c2ccccc2)cc1 : 380

IC50 in this record for COCCNC(=O)c1ccc(-c2nc(Cc3c[nH]c4ccccc34)nnc2-c2ccccc2)cc1 : 72.4

IC50 in this record for CN(C)CCNC(=O)c1ccc(-c2nc(Cc3c[nH]c4ccccc34)nnc2-c2ccccc2)cc1 : 1000

IC50 in this record for CC(=O)NCCNC(=O)c1ccc(-c2nc(Cc3c[nH]c4ccccc34)nnc2-c2ccccc2)cc1 : 209

* * *

Molecular target: human GPR84 (Homo sapiens, UniProt P04899+Q9NQS5)
Construct: expressed in transfected cells; host or cells: Flp-In T-REx 293 cells, doxycycline-induced; membrane preparations
Sequence (Q9NQS5+P04899 fused): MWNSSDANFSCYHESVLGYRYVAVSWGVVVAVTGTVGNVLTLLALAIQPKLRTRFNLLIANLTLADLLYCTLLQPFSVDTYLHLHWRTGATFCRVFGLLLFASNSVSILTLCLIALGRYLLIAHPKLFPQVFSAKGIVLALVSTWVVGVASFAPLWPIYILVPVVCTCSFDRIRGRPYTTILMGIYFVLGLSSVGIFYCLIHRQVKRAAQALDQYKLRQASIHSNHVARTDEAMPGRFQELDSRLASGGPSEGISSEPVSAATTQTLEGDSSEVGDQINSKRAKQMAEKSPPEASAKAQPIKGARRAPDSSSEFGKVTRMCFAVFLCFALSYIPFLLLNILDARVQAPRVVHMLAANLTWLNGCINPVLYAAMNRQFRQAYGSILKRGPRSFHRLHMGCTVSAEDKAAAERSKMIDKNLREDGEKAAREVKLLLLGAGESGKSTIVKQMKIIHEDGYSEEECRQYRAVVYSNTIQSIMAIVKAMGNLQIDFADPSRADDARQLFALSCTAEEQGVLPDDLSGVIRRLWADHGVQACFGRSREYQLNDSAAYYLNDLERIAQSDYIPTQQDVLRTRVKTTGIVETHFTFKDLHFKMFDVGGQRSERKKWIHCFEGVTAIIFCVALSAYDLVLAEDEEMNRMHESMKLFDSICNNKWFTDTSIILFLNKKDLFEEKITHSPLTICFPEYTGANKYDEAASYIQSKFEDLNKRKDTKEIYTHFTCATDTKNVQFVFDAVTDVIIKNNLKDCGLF
Test: biochemical
Type: biochemical
Details: [35S]GTPγS assay; negative log of the IC50 in molar; mean ± SEM
Assign class by GTPγS (pIC50): not lower than 6 means t; lower than 6 means f.

Exam item: decide whether the reported GTPγS (pIC50) for CC(=O)NCCNC(=O)c1ccc(-c2nnc(Cc3c[nH]c4ccccc34)nc2-c2ccccc2)cc1 [Compound 79] is at least 6.
t

Exam item: decide whether the reported GTPγS (pIC50) for c1ccc(-c2nc(Cc3c[nH]c4ccccc34)nnc2-c2cccnn2)cc1 [Compound 31] is at least 6.
t

Exam item: decide whether the reported GTPγS (pIC50) for c1ccc(-c2nnc(Cc3c[nH]c4ccccc34)nc2-c2ccccn2)nc1 [Compound 8] is at least 6.
f

Exam item: decide whether the reported GTPγS (pIC50) for c1ccc(-c2nnc(Cc3cnc4ccccn34)nc2-c2ccccc2)cc1 [Compound 20] is at least 6.
f

Exam item: decide whether the reported GTPγS (pIC50) for Cc1ccc2c(Cc3nnc(-c4ccccc4)c(-c4ccccc4)n3)c[nH]c2c1 [Compound 16] is at least 6.
f

Exam item: decide whether the reported GTPγS (pIC50) for COC(=O)c1ccc(-c2nnc(Cc3c[nH]c4ccccc34)nc2-c2ccc(C(=O)OC)cc2)cc1 [Compound 10] is at least 6.
t

Exam item: decide whether the reported GTPγS (pIC50) for c1ccc(-c2nc(Cc3c[nH]c4cnccc34)nnc2-c2ccnnc2)cc1 [Compound 62] is at least 6.
t

Exam item: decide whether the reported GTPγS (pIC50) for c1ccc(-c2nnc(CCc3cccnc3)nc2-c2ccccc2)cc1 [Compound 22] is at least 6.
f

Exam item: decide whether the reported GTPγS (pIC50) for FC(F)(F)Oc1ccccc1-c1cnc(Cc2c[nH]c3ccccc23)nn1 [Compound 27] is at least 6.
f

Exam item: decide whether the reported GTPγS (pIC50) for c1ccc(-c2nc(Cc3c[nH]c4cnccc34)nnc2-c2ccc(CN3CCOCC3)cc2)cc1 [Compound 64] is at least 6.
t

Exam item: decide whether the reported GTPγS (pIC50) for c1ccc(-c2nc(Cc3c[nH]c4ccccc34)nnc2-c2ccc(CN3CCOCC3)cc2)cc1 [Compound 42] is at least 6.
t

Exam item: decide whether the reported GTPγS (pIC50) for CC(=O)OCc1ccc(-c2nc(Cc3c[nH]c4ccccc34)nnc2-c2ccccc2)cc1 [Compound 37] is at least 6.
t

Exam item: decide whether the reported GTPγS (pIC50) for COC(=O)c1ccc(-c2nc(Cc3c[nH]c4cnccc34)nnc2-c2ccccc2)cc1 [Compound 65] is at least 6.
t

Exam item: decide whether the reported GTPγS (pIC50) for c1ccc(-c2nnc(Cc3c[nH]c4cnccc34)nc2-c2cnccn2)cc1 [Compound 59] is at least 6.
f

Exam item: decide whether the reported GTPγS (pIC50) for O=C(NCCO)c1ccc(-c2nnc(Cc3c[nH]c4ccccc34)nc2-c2ccccc2)cc1 [Compound 76] is at least 6.
t

Exam item: decide whether the reported GTPγS (pIC50) for COC(=O)c1ccc(-c2nnc(Cc3c[nH]c4cnccc34)nc2-c2ccccc2)cc1 [Compound 66] is at least 6.
t

Exam item: decide whether the reported GTPγS (pIC50) for CC(C)c1nnc(Cc2c[nH]c3ccccc23)nc1C(C)C [Compound 9] is at least 6.
f

Exam item: decide whether the reported GTPγS (pIC50) for CNC(=O)c1ccc(-c2nc(Cc3c[nH]c4ccncc34)nnc2-c2ccccc2)cc1 [Compound 71] is at least 6.
f

Exam item: decide whether the reported GTPγS (pIC50) for CNC(=O)c1ccc(-c2nnc(Cc3c[nH]c4cnccc34)nc2-c2ccccc2)cc1 [Compound 68] is at least 6.
t

Exam item: decide whether the reported GTPγS (pIC50) for COC(=O)c1ccc(-c2nc(Cc3c[nH]c4ccccc34)nnc2-c2ccccc2)cc1 [Compound 49] is at least 6.
t

Exam item: decide whether the reported GTPγS (pIC50) for c1ccc(-c2nnc(Cc3c[nH]c4ccccc34)nc2-c2ccc(CN3CCOCC3)cc2)cc1 [Compound 41] is at least 6.
t

Exam item: decide whether the reported GTPγS (pIC50) for c1ccc(-c2nnc(Cc3c[nH]c4cnccc34)nc2-c2ccc(CN3CCOCC3)cc2)cc1 [Compound 63] is at least 6.
t

Exam item: decide whether the reported GTPγS (pIC50) for CC(=O)OCc1ccc(-c2nnc(Cc3c[nH]c4ccccc34)nc2-c2ccccc2)cc1 [Compound 38] is at least 6.
t

Exam item: decide whether the reported GTPγS (pIC50) for CS(=O)(=O)NCc1ccc(-c2nc(Cc3c[nH]c4ccccc34)nnc2-c2ccccc2)cc1 [Compound 47] is at least 6.
t

Exam item: decide whether the reported GTPγS (pIC50) for CNS(=O)(=O)c1ccc(-c2nc(Cc3c[nH]c4ccccc34)nnc2-c2ccccc2)cc1 [Compound 33] is at least 6.
t

Exam item: decide whether the reported GTPγS (pIC50) for COc1ccc(-c2nnc(Cc3n[nH]c4ccccc34)nc2-c2ccc(OC)cc2)cc1 [Compound 14] is at least 6.
t

Exam item: decide whether the reported GTPγS (pIC50) for c1ccc(-c2nnc(NCc3cccnc3)nc2-c2ccccc2)cc1 [Compound 24] is at least 6.
f

Exam item: decide whether the reported GTPγS (pIC50) for CNC(=O)c1ccc(-c2nnc(Cc3c[nH]c4ccncc34)nc2-c2ccccc2)cc1 [Compound 72] is at least 6.
t

Exam item: decide whether the reported GTPγS (pIC50) for O=C(O)c1cccc(-c2nc(Cc3c[nH]c4ccccc34)nnc2-c2ccccc2)c1 [Compound 55] is at least 6.
f
